Answer each item with its documented melting point.

Worked examples follow.
1. COc1cc(-c2cn3cccnc3n2)ccc1OCc1ccccc1 [Example 28]; 168 to 169 °C
2. COc1cc(-c2cn3ccccc3n2)ccc1OCc1ccc(Cl)cc1 [Example 10]; 141 to 143 °C
3. c1ccc(COc2ccc(-c3cn4ccccc4n3)cc2)cc1 [Example 13]; 171 to 173 °C

// for each compound below, give its melting point
1. COc1cc(-c2cn3cc(C)ccc3n2)ccc1OCc1ccccc1 [Example 15]
2. COc1cc(-c2cn3cc(C)ccc3n2)ccc1OCc1ccc(Cl)cc1 [Example 32]

135 to 136 °C
140 to 142 °C

----------
Answer each item with its documented melting point.

Worked examples follow.
1. COc1ccc(COc2ccc(-c3cn4ccccc4n3)cc2OC)cc1; 165 to 167 °C
2. COc1cc(-c2nc3sccn3c2C)ccc1OCc1ccccc1.Cl; 228 to 230 °C

// for each compound below, give its melting point
1. COc1cc(-c2cn3cccc(C)c3n2)ccc1OCc1ccccc1
2. COc1cc(-c2cn3ccccc3n2)cc(OC)c1OCc1ccccc1
3. COc1cc(-c2cn3ccccc3n2)ccc1OCc1ccc(Br)cc1F
4. COc1ccc(COc2ccc(-c3cn4ccccc4n3)cc2)cc1
5. COc1cc(-c2cn3ccsc3n2)ccc1OCc1ccccc1
6. COc1cc(-c2cn3cccc(OCc4ccccc4)c3n2)ccc1OCc1ccccc1

["99 to 100 °C", "154 to 155 °C", "111 to 113 °C", "215 to 218 °C", "130 to 132 °C", "140 to 141 °C"]

// for each compound below, give its melting point
1. COc1cc(-c2cn3cc(C)ccc3n2)ccc1OCc1ccc(Br)cc1
2. COc1cc(-c2c[nH]c(-c3ccc(C(F)(F)F)cc3)n2)ccc1OCc1ccccc1.Cl
3. COc1cc(-c2cn3cc(C)sc3n2)ccc1OCc1ccc(Cl)cc1
4. CCCOc1cc(-c2cn3ccccc3n2)ccc1OCc1ccccc1
5. COc1cc(-c2cn3cccc(OCc4ccccc4)c3n2)ccc1OCc1ccc(C#N)cc1
6. c1ccc(Oc2ccc(-c3cn4ccccc4n3)cc2)cc1
7. COc1cc(-c2cccc3nccn23)ccc1O
8. COc1cc(-c2cn3cc(C)cc(Br)c3n2)ccc1OCc1ccc(C#N)cc1

1. 155 to 157 °C
2. 247 to 249 °C
3. 156 to 158 °C
4. 126 to 127 °C
5. 169 to 170 °C
6. 164 to 165 °C
7. 177 to 178 °C
8. 175 to 176 °C

// for each compound below, give its melting point
1. COc1cc(-c2cn3ccccc3n2)ccc1OCc1ccc(F)cc1
2. CCOc1cc(-c2cn3ccccc3n2)ccc1OCc1ccccc1
3. COc1cc(-c2cn3cccc(OC)c3n2)ccc1OCc1ccccc1
4. COc1cc(-c2cn3cccnc3n2)ccc1OCc1ccc(Cl)cc1

["144 to 146 °C", "157 to 158 °C", "189 to 191 °C", "216 to 218 °C"]

----------
Answer each item with its documented melting point.

Worked examples follow.
1. COc1cc(-c2cn3ccccc3n2)ccc1OCc1ccc(F)cc1F; 137 to 138 °C
2. COc1cc(-c2cnc3ccccn23)ccc1OC(C)c1ccccc1 (centres unmarked); 113 to 113.5 °C
3. COc1cc(-c2cn3ccccc3n2)ccc1OCc1ccc(Cl)cc1Cl; 138 to 139 °C
4. COc1cc(-c2cn3ccsc3n2)ccc1OCc1ccc([N+](=O)[O-])cc1; 189 to 191 °C

# ---- query molecule ----
Bench note: what melting point did "COc1cc(-c2nc3ccccn3c2Cl)ccc1Oc1ccccc1" show?
108 to 109 °C
